# target-desc: human TLR9 (Homo sapiens)
# Sequence (Q9NR96 26-1032): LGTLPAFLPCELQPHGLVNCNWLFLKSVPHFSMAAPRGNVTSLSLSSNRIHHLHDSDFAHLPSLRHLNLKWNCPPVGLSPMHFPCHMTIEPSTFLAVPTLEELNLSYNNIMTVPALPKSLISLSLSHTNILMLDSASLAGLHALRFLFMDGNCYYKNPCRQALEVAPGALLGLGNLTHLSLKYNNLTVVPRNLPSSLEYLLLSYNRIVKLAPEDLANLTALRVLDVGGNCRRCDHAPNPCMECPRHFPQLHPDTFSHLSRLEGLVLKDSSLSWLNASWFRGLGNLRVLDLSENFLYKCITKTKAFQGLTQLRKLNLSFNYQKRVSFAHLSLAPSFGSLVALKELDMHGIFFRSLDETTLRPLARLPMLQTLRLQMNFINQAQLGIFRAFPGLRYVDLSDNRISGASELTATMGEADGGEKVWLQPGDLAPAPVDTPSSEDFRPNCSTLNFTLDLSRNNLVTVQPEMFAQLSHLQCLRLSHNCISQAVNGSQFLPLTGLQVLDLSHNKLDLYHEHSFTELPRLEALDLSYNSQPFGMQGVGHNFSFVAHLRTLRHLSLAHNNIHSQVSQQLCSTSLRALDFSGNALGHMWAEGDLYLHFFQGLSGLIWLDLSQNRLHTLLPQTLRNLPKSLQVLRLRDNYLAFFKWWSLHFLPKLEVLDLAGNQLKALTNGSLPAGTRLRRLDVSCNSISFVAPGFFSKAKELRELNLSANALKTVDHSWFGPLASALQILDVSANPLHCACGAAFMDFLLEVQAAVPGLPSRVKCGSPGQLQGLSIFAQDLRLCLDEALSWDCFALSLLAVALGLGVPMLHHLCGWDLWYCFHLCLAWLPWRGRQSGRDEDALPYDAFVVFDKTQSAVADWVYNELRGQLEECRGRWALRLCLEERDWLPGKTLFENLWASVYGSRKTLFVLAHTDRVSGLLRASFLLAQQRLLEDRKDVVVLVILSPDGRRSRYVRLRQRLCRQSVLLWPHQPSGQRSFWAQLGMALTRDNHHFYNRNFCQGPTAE
# assay-method-text: TLR9 inhibition reporter assay (HEK-Blue cells, SEAP reporter, ODN2006 stimulation)
# measurement-context: HEK-Blue cells overexpressing human TLR9, SEAP reporter, ODN2006 5 nM
experimental-endpoint: IC50 (µM)

Quote IC50 with test system human TLR9 (Homo sapiens) for Cc1c(-c2[nH]c3sc(N4CC5(CN(CC6CCOCC6)C5)C4)nc3c2C(C)C)cn2ncnc2c1C [Example 301]
12.3

[P] COc1cc(-c2[nH]c3sc(C4CCC(N5CCCC5)CC4)nc3c2C(C)C)cn2ncnc12 (single isomer, unassigned) [Example 98]
[Q] Cc1cc(-c2[nH]c3sc(C4CCC(NCC5(CO)CC5)CC4)nc3c2C(C)C)cn2ncnc12 (single isomer, unassigned) [Example 143]
Thinking about recorded IC50 values, which is higher, P or Q ? Kindly state the label of the option you pick.
Q

[I] COc1cc(-c2[nH]c3sc(C4CCC(NC(=O)CN(C)C)CC4)nc3c2C(C)C)cn2ncnc12 (stereo not shown) [Example 126]
[II] Cc1cc(-c2[nH]c3sc(C(=O)N4CCC(N(C)C)CC4)nc3c2C(C)C)cn2ncnc12 [Example 395]
Between I and II , which one shows the smaller IC50 number? Kindly state the label of the option you pick.
II
(II: 4.5 µM, I: 13.2 µM)

[P] Cc1c(-c2[nH]c3sc(N4CCN(C(=O)CN(C)C)CC4)nc3c2C(C)C)cn2ncnc2c1C [Example 280]
[Q] COc1cc(-c2[nH]c3sc(C4CCN(CCS(C)(=O)=O)CC4)nc3c2C(C)C)cn2ncnc12 [Example 16]
Thinking about recorded IC50 values, which is higher, P or Q ? Kindly state the label of the option you pick.
Q
